target system: Adenosine receptor A1 (Homo sapiens)
Sequence (P30542 whole entry): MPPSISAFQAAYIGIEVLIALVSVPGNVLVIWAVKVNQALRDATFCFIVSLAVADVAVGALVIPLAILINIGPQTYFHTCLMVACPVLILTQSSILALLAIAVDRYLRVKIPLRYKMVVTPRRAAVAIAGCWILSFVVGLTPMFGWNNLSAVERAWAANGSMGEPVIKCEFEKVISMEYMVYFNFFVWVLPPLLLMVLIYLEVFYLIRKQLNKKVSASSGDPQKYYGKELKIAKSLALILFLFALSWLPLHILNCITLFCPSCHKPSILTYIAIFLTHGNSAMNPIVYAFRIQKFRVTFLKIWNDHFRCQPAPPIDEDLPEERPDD
assay comment: Displacement of [3H]CCPA from human recombinant adenosine A1 receptor expressed in CHO cells after 60 mins by liquid scintillation counting
Format: cell-based
readout kind: Ki

Challenge: Requested field: Ki. Item: CNC(=O)[C@]12C[C@@H]1[C@@H](n1cnc3c(NCc4cccc(Cl)c4)nc(Cl)nc31)[C@H](O)[C@@H]2O
Response given: 260 nM

Challenge: I'd like to know its Ki. The molecule in question is CNC(=O)[C@]12C[C@@H]1[C@@H](n1cnc3c(NCc4cccc(I)c4)ncnc31)[C@H](O)[C@@H]2O
Response given: 700 nM

Challenge: What measured Ki goes with CNC(=O)[C@]12C[C@@H]1[C@@H](n1cnc3c(NCc4cccc(Cl)c4)nc(C#CCCCC(=O)NCCN)nc31)[C@H](O)[C@@H]2O ?
Response given: 454 nM

Challenge: Entry CNC(=O)[C@]12C[C@@H]1[C@@H](n1cnc3c(NCc4cccc(Cl)c4)nc(C#CCCCC(=O)OC)nc31)[C@H](O)[C@@H]2O has what Ki?
Response given: 482 nM

----------
What Ki was measured for each of the following?
target system: Adenosine receptor A3 (Homo sapiens)
Sequence (P0DMS8 whole entry): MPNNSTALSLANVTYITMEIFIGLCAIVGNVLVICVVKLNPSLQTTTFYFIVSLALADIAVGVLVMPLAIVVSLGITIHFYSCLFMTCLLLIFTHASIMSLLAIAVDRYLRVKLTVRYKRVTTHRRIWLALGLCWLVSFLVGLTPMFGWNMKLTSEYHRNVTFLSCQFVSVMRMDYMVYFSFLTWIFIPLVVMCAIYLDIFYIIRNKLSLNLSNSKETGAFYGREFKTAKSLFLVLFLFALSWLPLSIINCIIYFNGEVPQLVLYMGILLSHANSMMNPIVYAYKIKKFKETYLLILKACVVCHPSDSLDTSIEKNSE
assay comment: Displacement of [125I]AB-MECA from human recombinant adenosine A3 receptor expressed in CHO cells after 60 mins by gamma counting
Respond with the bare value in nM.

Challenge: Look up Ki: CNC(=O)[C@]12C[C@@H]1[C@@H](n1cnc3c(NCc4cccc(Cl)c4)nc(C#CCCC(=O)NCCCN)nc31)[C@H](O)[C@@H]2O
Response given: 3.1

Challenge: So what's the measured Ki for this one? CNC(=O)[C@]12C[C@@H]1[C@@H](n1cnc3c(NCc4cccc(Cl)c4)nc(C#CCCC(=O)NCCNCCN)nc31)[C@H](O)[C@@H]2O
Response given: 15.4

Challenge: Endpoint output: Ki of CNC(=O)[C@]12C[C@@H]1[C@@H](n1cnc3c(NCc4cccc(Cl)c4)nc(C#CCCCC(=O)NCCN)nc31)[C@H](O)[C@@H]2O . Value?
Response given: 2.17

Challenge: What measured Ki goes with O[C@@H]1[C@H](O)[C@@H]2C[C@@H]2[C@H]1n1cnc2c(NC3CCCC3)nc(Cl)nc21 ?
Response given: 120

Challenge: So what's the measured Ki for this one? CNC(=O)[C@]12C[C@@H]1[C@@H](n1cnc3c(NCc4cccc(Cl)c4)nc(C#CCCC(=O)NCCNC(=O)CCCCCNC(=O)CCCC[C@H]4SC[C@H]5NC(=O)N[C@H]54)nc31)[C@H](O)[C@@H]2O
Response given: 57.7

----------
Give measured inhibition for each item. Keep answers brief.
target system: UniProtKB P30542
Sequence (whole entry): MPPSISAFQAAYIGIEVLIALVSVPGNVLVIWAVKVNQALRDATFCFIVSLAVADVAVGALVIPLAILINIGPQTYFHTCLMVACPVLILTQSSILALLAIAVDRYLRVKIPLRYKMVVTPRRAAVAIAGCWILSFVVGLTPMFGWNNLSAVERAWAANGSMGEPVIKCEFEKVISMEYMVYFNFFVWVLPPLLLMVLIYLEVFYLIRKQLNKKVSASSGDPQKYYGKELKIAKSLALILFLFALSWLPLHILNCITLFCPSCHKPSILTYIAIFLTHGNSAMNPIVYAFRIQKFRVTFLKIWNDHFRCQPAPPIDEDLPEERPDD
assay comment: Inhibition of [3H]NECA binding to human recombinant adenosine A1 receptor expressed in CHO cells at 10 uM after 60 mins by liquid scintillation counting
Format: cell-based
# output: bare number, implied unit %

Challenge: Any idea what its inhibition is? The compound is CNC(=O)[C@]12C[C@@H]1[C@@H](n1cnc3c(NCc4cccc(Cl)c4)nc(C#CCCC(=O)NCCNCCN)nc31)[C@H](O)[C@@H]2O
Response given: 33

Challenge: Consider the compound shown here: CNC(=O)[C@]12C[C@@H]1[C@@H](n1cnc3c(NCc4cccc(Cl)c4)nc(C#CCCC(=O)O)nc31)[C@H](O)[C@@H]2O What is its recorded inhibition?
Response given: 17

Challenge: Please report the recorded inhibition for CNC(=O)[C@]12C[C@@H]1[C@@H](n1cnc3c(NCc4cccc(Cl)c4)nc(C#CCCCCC(=O)O)nc31)[C@H](O)[C@@H]2O .
Response given: 11

Challenge: Recorded inhibition for CNC(=O)[C@]12C[C@@H]1[C@@H](n1cnc3c(NCc4cccc(Cl)c4)nc(C#CCCC(=O)NCCCCN)nc31)[C@H](O)[C@@H]2O , please?
Response given: 30

Challenge: State the recorded inhibition for this entry: CNC(=O)[C@]12C[C@@H]1[C@@H](n1cnc3c(NCc4cccc(Cl)c4)nc(C#CCCC(=O)NCCCN)nc31)[C@H](O)[C@@H]2O
Response given: 31

Challenge: Given NCCNC(=O)CCC#Cc1nc(NCc2cccc(Cl)c2)c2ncn([C@H]3[C@H](O)[C@H](O)[C@@H]4C[C@@H]43)c2n1 , state its recorded inhibition.
Response given: 15
